Kindly supply the reported inhibition at 10 µM values for the records listed here.
test: HCV replicon assay (luciferase reporter, ET cell line); type: cell-based; settings: Hepatitis C virus, HCV replicon luciferase activity in ET cells
Numbers only, in %.

Solved entries:
>>> df
                                   compound            parameter  measurement_units  recorded_result
0  O=C(c1nc2c(C(F)(F)F)cc(-c3ccoc3)cn2c1Cl)N1CCC(C2CCOC2)C1 (centres unmarked)  inhibition at 10 µM                  %             95.1
1  O=C(c1nc2c(C(F)(F)F)cc(-c3ccoc3)cn2c1Cl)N1CCC(c2ccc(F)c(F)c2)C1 (centres unmarked)  inhibition at 10 µM                  %             93.6
2  O=C(c1nc2c(C(F)(F)F)cc(-c3ccoc3)cn2c1Cl)N1CCN(c2ccc(C(F)(F)F)cc2)CC1  inhibition at 10 µM                  %             78.9
3  O=C(NCc1cccs1)c1nn2c(Br)cc(-c3ccccc3)cc2c1Cl  inhibition at 10 µM                  %             74.2
4  O=C(CNC(=O)c1nc2c(C(F)(F)F)cc(-c3ccoc3)cn2c1Cl)c1cccc(F)c1  inhibition at 10 µM                  %             46.6

List reported inhibition at 10 µM for each of these compounds:
1. O=C(c1nc2c(C(F)(F)F)cc(-c3cn[nH]c3)cn2c1Cl)N1CCC(c2ccccc2F)CC1
2. O=C(c1nc2c(C(F)(F)F)cc(-c3ccoc3)cn2c1Cl)N1CCN(c2ccc(F)cc2)CC1
3. O=C(c1nc2c(C(F)(F)F)cc(-c3cn[nH]c3)cn2c1I)N1CCC(c2cccc(F)c2)C1 (centres unmarked)
4. CC(C)(C)OC(=O)N[C@H]1CN(C(=O)c2nc3c(C(F)(F)F)cc(-c4ccoc4)cn3c2Cl)C[C@@H]1c1ccccc1 (stereo in doubt)
5. N#Cc1cc(C(F)(F)F)c2nc(C(=O)NCc3cccs3)c(Cl)n2c1
6. O=C(c1nc2c(C(F)(F)F)cc(-c3ccoc3)cn2c1Cl)N1CC=C(C2=CN=CNC2)CC1
7. O=C(c1nc2c(C(F)(F)F)cc(-c3ccoc3)cn2c1Cl)N1C=C(c2cscn2)CCC1

1. 87.9
2. 80.3
3. 93.8
4. 79.3
5. 1.8
6. 44
7. 84.5

====

experiment: HCV replicon assay (luciferase reporter, ET cell line); type: cell-based; conditions: Hepatitis C virus, HCV replicon luciferase activity in ET cells
Output 1.0 for inhibition at 10 µM not less than 90%; output 0.0 otherwise.

>>> print(df.to_string())
                                   molecule  group
0  O=C(NCc1ccc(F)cc1)NCc1cn2cc(-c3ccoc3)cc(C(F)(F)F)c2n1    0.0
1  CN(C)S(=O)(=O)NC1CN(C(=O)c2nc3c(C(F)(F)F)cc(-c4ccoc4)cn3c2Cl)C1    1.0

Would you say O=C(c1cn2cc(-c3cn[nH]c3)cc(C(F)(F)F)c2n1)N1CCC(c2cccc(F)c2)C1 (stereo not shown) shows inhibition at 10 µM at minimum 90%?
0.0

Would you say `O=C(NCc1ccoc1)c1nc2c(C(F)(F)F)cc(-c3ccco3)cn2c1Cl` shows inhibition at 10 µM at minimum 90%?
1.0

Would you say `O=C(NCc1cn2cc(-c3ccoc3)cc(C(F)(F)F)c2n1)OCc1ccccc1` shows inhibition at 10 µM at minimum 90%?
0.0

Would you say `O=C(NCCc1ccccn1)c1nc2c(C(F)(F)F)cc(-c3ccoc3)cn2c1Cl` shows inhibition at 10 µM at minimum 90%?
1.0

Would you say `O=C(NCc1cccs1)c1nc2c(C(F)(F)F)cc(-c3cccc(F)c3)cn2c1C1=CCCCC1` shows inhibition at 10 µM at minimum 90%?
0.0

Would you say CC(=O)Nc1nc(-c2cc(C(F)(F)F)c3nc(C(=O)N4CCC(c5cccc(F)c5)C4)c(Cl)n3c2)cs1 (stereo not shown) shows inhibition at 10 µM at minimum 90%?
0.0
